Target: T1, EsCas13d, nuclease-dead (Eubacterium siraeum, UniProt B0MS50, R295A;H300A;R849A;H854A)
T1 sequence: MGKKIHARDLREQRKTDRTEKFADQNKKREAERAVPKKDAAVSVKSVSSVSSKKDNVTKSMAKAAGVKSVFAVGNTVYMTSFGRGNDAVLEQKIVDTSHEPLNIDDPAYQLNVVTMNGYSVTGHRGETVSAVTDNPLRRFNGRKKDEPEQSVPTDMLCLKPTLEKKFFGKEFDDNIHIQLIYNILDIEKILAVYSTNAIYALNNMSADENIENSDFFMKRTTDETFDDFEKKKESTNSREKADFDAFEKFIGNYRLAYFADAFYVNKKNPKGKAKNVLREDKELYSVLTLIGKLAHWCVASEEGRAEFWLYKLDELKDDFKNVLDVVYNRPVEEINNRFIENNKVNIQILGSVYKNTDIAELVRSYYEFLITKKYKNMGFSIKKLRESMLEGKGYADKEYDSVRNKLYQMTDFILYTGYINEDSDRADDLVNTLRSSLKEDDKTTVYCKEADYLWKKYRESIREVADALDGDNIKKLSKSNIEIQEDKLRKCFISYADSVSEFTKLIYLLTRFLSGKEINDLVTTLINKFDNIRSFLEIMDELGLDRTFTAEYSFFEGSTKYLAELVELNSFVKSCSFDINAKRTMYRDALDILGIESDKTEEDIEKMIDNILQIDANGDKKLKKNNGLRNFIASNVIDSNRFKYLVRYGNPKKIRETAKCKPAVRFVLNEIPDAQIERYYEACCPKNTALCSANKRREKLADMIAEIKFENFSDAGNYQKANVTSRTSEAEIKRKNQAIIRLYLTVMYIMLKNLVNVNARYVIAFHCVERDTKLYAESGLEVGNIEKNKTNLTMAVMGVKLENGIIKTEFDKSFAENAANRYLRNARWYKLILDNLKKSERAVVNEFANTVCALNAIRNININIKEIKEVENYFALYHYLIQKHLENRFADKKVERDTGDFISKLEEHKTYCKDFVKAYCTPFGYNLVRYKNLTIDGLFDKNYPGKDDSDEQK
Test: crRNA (strand 1, pre-loaded); Mg2+; 40 mM Tris-HCl pH 7.5, 150 mM NaCl, 6 mM MgCl2, 1 mM DTT, 0.1% Tween-20, 0.2 mg/ml BSA; 25 C; 10 min per concentration, then washed
Conditions: tags: His6-TwinStrep-SUMO cleaved; N-terminal SNAP kept (SNAP-Surface 488); label: 3' end held by stalled T7 RNA polymerase
pKd: −log10 of the molar value.
Entries annotated with measured pKd

Binder	pKd
target 1 G12A,C21U (mixed) RNA 1: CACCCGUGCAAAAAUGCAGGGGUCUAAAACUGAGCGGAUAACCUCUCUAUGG RNA 2: GGGAAUGGAUCCACAUCUACGAAUUCGUACUAUAGAGAGAUUAUCCGCUCACCGAGAUCGGAAGAGCACACGU	8.11
target 1 C6U,G13A (mixed) RNA 1: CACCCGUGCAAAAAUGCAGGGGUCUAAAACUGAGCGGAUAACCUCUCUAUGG RNA 2: GGGAAUGGAUCCACAUCUACGAAUUCGUACCAUAGAGAAGUUAUCUGCUCACCGAGAUCGGAAGAGCACACGU	8.05
target 3 insG 3' of 11,insU 3' of 4 (mixed) RNA 1: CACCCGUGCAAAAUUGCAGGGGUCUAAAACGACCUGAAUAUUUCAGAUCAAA RNA 2: GGGAAUGGAUCCACAUCUACGAAUUCGUUUUUGAUCUGAAAGUAUUCAGUGUCUGCAGAUCGGAAGAGCACACGU	7.26
